Quick list: mass density per entry.
conditions: 473.15 K; 101.33 kPa; Liquid; Vibrating tube method
Number only, in kg/m3; omit the unit.

Sample answers from the record:
CCCCCCCCCCn1cc[n+](C)c1.O=S(=O)([N-]S(=O)(=O)C(F)(F)F)C(F)(F)F
1131.4
CCCCCCCCCCCCCCn1cc[n+](C)c1.O=S(=O)([N-]S(=O)(=O)C(F)(F)F)C(F)(F)F
1071.4
CCCCCCCCC[n+]1ccn(C)c1.O=S(=O)([N-]S(=O)(=O)C(F)(F)F)C(F)(F)F
1147.8
CCCC[n+]1ccn(C)c1.O=S(=O)([N-]S(=O)(=O)C(F)(F)F)C(F)(F)F
1272

Moving on to another compound below.
State its mass density for this compound: "CCCCCn1cc[n+](C)c1.O=S(=O)([N-]S(=O)(=O)C(F)(F)F)C(F)(F)F"
1241.3

====

conditions: 343.15 K; 101.33 kPa; Liquid; Vibrating tube method
Readout Name: mass density (kg/m3)
Number only, in kg/m3; omit the unit.

Sample answers from the record:
CCn1cc[n+](C)c1.O=S(=O)([N-]S(=O)(=O)C(F)(F)F)C(F)(F)F
1476.1
CCCCCCCCCCCCn1cc[n+](C)c1.O=S(=O)([N-]S(=O)(=O)C(F)(F)F)C(F)(F)F
1207.4
CCCn1cc[n+](C)c1.O=S(=O)([N-]S(=O)(=O)C(F)(F)F)C(F)(F)F
1432.4

State its mass density for this molecule: "CCCCCCCn1cc[n+](C)c1.O=S(=O)([N-]S(=O)(=O)C(F)(F)F)C(F)(F)F"
1305

State its mass density for this molecule: "CCCCCCCCCCn1cc[n+](C)c1.O=S(=O)([N-]S(=O)(=O)C(F)(F)F)C(F)(F)F"
1241.8

State its mass density for this molecule: "CCCC[n+]1ccn(C)c1.O=S(=O)([N-]S(=O)(=O)C(F)(F)F)C(F)(F)F"
1395.6

State its mass density for this molecule: "CCCCCC[n+]1ccn(C)c1.O=S(=O)([N-]S(=O)(=O)C(F)(F)F)C(F)(F)F"
1332.9

State its mass density for this molecule: "CCCCCCCCCCCCCCn1cc[n+](C)c1.O=S(=O)([N-]S(=O)(=O)C(F)(F)F)C(F)(F)F"
1176.6

State its mass density for this molecule: "CCCCCCCCC[n+]1ccn(C)c1.O=S(=O)([N-]S(=O)(=O)C(F)(F)F)C(F)(F)F"
1259.7

State its mass density for this molecule: "CCCCCn1cc[n+](C)c1.O=S(=O)([N-]S(=O)(=O)C(F)(F)F)C(F)(F)F"
1362.1

State its mass density for this molecule: "CCCCCCCCn1cc[n+](C)c1.O=S(=O)([N-]S(=O)(=O)C(F)(F)F)C(F)(F)F"
1282.5

====

conditions: 323.15 K; 101.33 kPa; Liquid; Vibrating tube method
Quick list: mass density per entry.
Number only, in kg/m3; omit the unit.

CCCCCCCCn1cc[n+](C)c1.O=S(=O)([N-]S(=O)(=O)C(F)(F)F)C(F)(F)F
1299.8
CCn1cc[n+](C)c1.O=S(=O)([N-]S(=O)(=O)C(F)(F)F)C(F)(F)F
1495.5
CCCCCCCCCCCCCCn1cc[n+](C)c1.O=S(=O)([N-]S(=O)(=O)C(F)(F)F)C(F)(F)F
1193.1
CCCCCCCn1cc[n+](C)c1.O=S(=O)([N-]S(=O)(=O)C(F)(F)F)C(F)(F)F
1322.6
CCCCCC[n+]1ccn(C)c1.O=S(=O)([N-]S(=O)(=O)C(F)(F)F)C(F)(F)F
1350.8

Moving on to another compound below.
State its mass density for this compound: "CCCCCCCCCCCCn1cc[n+](C)c1.O=S(=O)([N-]S(=O)(=O)C(F)(F)F)C(F)(F)F"
1224

====

conditions: 443.15 K; 101.33 kPa; Liquid; Vibrating tube method
Quick list: mass density per entry.
Number only, in kg/m3; omit the unit.

State its mass density for this molecule: "CCCCCC[n+]1ccn(C)c1.O=S(=O)([N-]S(=O)(=O)C(F)(F)F)C(F)(F)F"
1243.2

====

details: 433.15 K; 101.33 kPa; Liquid; Vibrating tube method
Readout Name: mass density (kg/m3)
Number only, in kg/m3; omit the unit.

Sample answers from the record:
CCCn1cc[n+](C)c1.O=S(=O)([N-]S(=O)(=O)C(F)(F)F)C(F)(F)F
1345.9
CCCCCCCCCCCCCCn1cc[n+](C)c1.O=S(=O)([N-]S(=O)(=O)C(F)(F)F)C(F)(F)F
1104.3
CCCCCC[n+]1ccn(C)c1.O=S(=O)([N-]S(=O)(=O)C(F)(F)F)C(F)(F)F
1252.4
CCCCCCCn1cc[n+](C)c1.O=S(=O)([N-]S(=O)(=O)C(F)(F)F)C(F)(F)F
1226.1
CCCCCCCCn1cc[n+](C)c1.O=S(=O)([N-]S(=O)(=O)C(F)(F)F)C(F)(F)F
1204.8
CCCCCn1cc[n+](C)c1.O=S(=O)([N-]S(=O)(=O)C(F)(F)F)C(F)(F)F
1279.7
CCn1cc[n+](C)c1.O=S(=O)([N-]S(=O)(=O)C(F)(F)F)C(F)(F)F
1387.3
CCCC[n+]1ccn(C)c1.O=S(=O)([N-]S(=O)(=O)C(F)(F)F)C(F)(F)F
1311.6

State its mass density for this compound: "CCCCCCCCC[n+]1ccn(C)c1.O=S(=O)([N-]S(=O)(=O)C(F)(F)F)C(F)(F)F"
1183.2

State its mass density for this compound: "CCCCCCCCCCCCn1cc[n+](C)c1.O=S(=O)([N-]S(=O)(=O)C(F)(F)F)C(F)(F)F"
1133.7

State its mass density for this compound: "CCCCCCCCCCn1cc[n+](C)c1.O=S(=O)([N-]S(=O)(=O)C(F)(F)F)C(F)(F)F"
1166.4

====

details: 473.15 K; 101.33 kPa; Liquid; Vibrating tube method
Readout Name: mass density (kg/m3)
Number only, in kg/m3; omit the unit.

Sample answers from the record:
CCn1cc[n+](C)c1.O=S(=O)([N-]S(=O)(=O)C(F)(F)F)C(F)(F)F
1345.2
CCCCCCCn1cc[n+](C)c1.O=S(=O)([N-]S(=O)(=O)C(F)(F)F)C(F)(F)F
1189.4
CCCCCC[n+]1ccn(C)c1.O=S(=O)([N-]S(=O)(=O)C(F)(F)F)C(F)(F)F
1214.9
CCCCCCCCn1cc[n+](C)c1.O=S(=O)([N-]S(=O)(=O)C(F)(F)F)C(F)(F)F
1168.8

Moving on to another molecule below.
State its mass density for this molecule: "CCCn1cc[n+](C)c1.O=S(=O)([N-]S(=O)(=O)C(F)(F)F)C(F)(F)F"
1305.1

====

Quick list: mass density per entry.
details: 403.15 K; 101.33 kPa; Liquid; Vibrating tube method
Number only, in kg/m3; omit the unit.

CCCCCCCCCCCCn1cc[n+](C)c1.O=S(=O)([N-]S(=O)(=O)C(F)(F)F)C(F)(F)F
1158.4
CCCC[n+]1ccn(C)c1.O=S(=O)([N-]S(=O)(=O)C(F)(F)F)C(F)(F)F
1340.1
CCCCCCCCn1cc[n+](C)c1.O=S(=O)([N-]S(=O)(=O)C(F)(F)F)C(F)(F)F
1230.9
CCCCCC[n+]1ccn(C)c1.O=S(=O)([N-]S(=O)(=O)C(F)(F)F)C(F)(F)F
1279.6
CCCCCCCCCCn1cc[n+](C)c1.O=S(=O)([N-]S(=O)(=O)C(F)(F)F)C(F)(F)F
1191.7

Moving on to another compound below.
State its mass density for this compound: "CCCn1cc[n+](C)c1.O=S(=O)([N-]S(=O)(=O)C(F)(F)F)C(F)(F)F"
1375.3

====

Quick list: mass density per entry.
conditions: 453.15 K; 101.33 kPa; Liquid; Vibrating tube method
Number only, in kg/m3; omit the unit.

CCCCCCCCC[n+]1ccn(C)c1.O=S(=O)([N-]S(=O)(=O)C(F)(F)F)C(F)(F)F
1165.7
CCCC[n+]1ccn(C)c1.O=S(=O)([N-]S(=O)(=O)C(F)(F)F)C(F)(F)F
1292.1
CCCCCC[n+]1ccn(C)c1.O=S(=O)([N-]S(=O)(=O)C(F)(F)F)C(F)(F)F
1233.9

State its mass density for this molecule: "CCCCCCCCn1cc[n+](C)c1.O=S(=O)([N-]S(=O)(=O)C(F)(F)F)C(F)(F)F"
1187

State its mass density for this molecule: "CCCCCCCCCCCCCCn1cc[n+](C)c1.O=S(=O)([N-]S(=O)(=O)C(F)(F)F)C(F)(F)F"
1088

State its mass density for this molecule: "CCCCCCCCCCn1cc[n+](C)c1.O=S(=O)([N-]S(=O)(=O)C(F)(F)F)C(F)(F)F"
1148.9

State its mass density for this molecule: "CCCn1cc[n+](C)c1.O=S(=O)([N-]S(=O)(=O)C(F)(F)F)C(F)(F)F"
1325.8

State its mass density for this molecule: "CCCCCCCn1cc[n+](C)c1.O=S(=O)([N-]S(=O)(=O)C(F)(F)F)C(F)(F)F"
1208

State its mass density for this molecule: "CCn1cc[n+](C)c1.O=S(=O)([N-]S(=O)(=O)C(F)(F)F)C(F)(F)F"
1366.6

State its mass density for this molecule: "CCCCCn1cc[n+](C)c1.O=S(=O)([N-]S(=O)(=O)C(F)(F)F)C(F)(F)F"
1260.8
